src = PubChem BioAssay (NCI)

Test system: NCI-H226 lung
Assay: NCI tumour cell line growth inhibition, 48 h
Could you please report measured TGI for the items listed next?

*Q* Please give the measured TGI for this compound: CCOC(=O)C1N(S(=O)(=O)c2ccc(C)cc2)CCC12c1ccccc1NC2c1ccc(OC)c(OC)c1 (configuration not stated)
*A* > 100 µM

*Q* Moving on to CC1=C(C(=O)NNC(=O)c2ccccc2)CC(C(=O)NNC(=O)c2ccccc2)=C(C)N1
*A* > 100 µM

*Q* Also, Cc1cccc(-c2nnc3s/c(=C\c4ccc5c(c4)OCO5)c(=O)n23)c1 please.
*A* > 100 µM

*Q* Another compound: CCCCCCCc1c(Cl)nc(Cl)nc1Cl
*A* 4.68 µM

*Q* And the next one, N/N=C(/Cc1ccccc1)NNC(N)=S ?
*A* > 100 µM

*Q* Repeat with C=C1C[C@@H](O)[C@@H](Br)C(C)(C)[C@@]12C=CC(O)(CBr)CC2 (some centres not stated)
*A* > 100 µM

*Q* For S=c1[nH]n2c(Cc3ccccc3)nnc2s1 then?
*A* > 100 µM

*Q* Please give the result for O=C1C(=C/C=C2/SC(c3ccccc3)(c3ccccc3)c3ccccc32)C(=O)c2ccccc21 too.
*A* > 100 µM

*Q* Queued: Cc1cc(C)c(C2CC(O)C(CO)O2)cc1C (configuration not stated)
*A* > 100 µM

*Q* Same read-out for S=C(N/N=C/c1ccccc1)NC12CC3CC(CC(C3)C1)C2 ?
*A* > 100 µM

*Q* Then what about the compound NCCCCCCn1c2c(c3ccccc3c1=O)C(=O)c1ccccc1-2 ?
*A* 3.07 µM

*Q* Cool, now CC1=c2c(oc3cc(O)c(Nc4c(C)cc(O)cc4O)c(C)c23)=CC(=O)C1=Nc1c(C)cc(O)cc1O
*A* > 100 µM

*Q* // query: O=C1c2ccccc2C2=Cc3ccccc3C(O)N12 (configuration not stated)
*A* > 100 µM

*Q* Next compound up: CC(NC(=O)C(Cc1ccc(OC(=O)c2ccccc2)cc1)NC(=O)OC(C)(C)C)C(=O)NCC(=O)NC(Cc1ccccc1)NC(=O)OCc1ccccc1 (configuration not stated)
*A* > 100 µM

*Q* // next record COc1cc2c(/C=C3/C(=O)Nc4ccc(O)cc43)c(Cl)[nH]c2cc1C
*A* 3.77 µM

*Q* Now consider COc1ccc(N=Nc2c(O)ccc3ccccc23)cc1 .
*A* 47.6 µM

*Q* Now the compound CC(C)(C)c1ccc2c(c1)C(O)(c1ccccc1)c1cc(C(C)(C)C)ccc1C2(O)C(F)(F)F (configuration not stated)
*A* 2.35 µM

*Q* Another: NC1CCC[C@H]1O (some centres not stated)
*A* > 100 µM

*Q* Query O=C(COc1cccc(/C=C2/Oc3ccccc3C2=O)c1)Nc1nccs1 next
*A* 67.9 µM

*Q* Another compound to look at: C=C(CN(C)C)C1(c2ccccc2)CC2(CCCC2)C(=O)O1 (configuration not stated)
*A* > 100 µM

*Q* Then CCOC(=O)C(NC(=O)CC)(Nc1ccc(S(=O)(=O)Nc2ncccn2)cc1)C(F)(F)F (configuration not stated) ?
*A* > 100 µM

*Q* Thanks! And CCN(CC)CCOc1nc2c3ccc(Cl)cc3nn2c2ccccc12 ?
*A* 10.2 µM
